Every entry's value here was drawn from ChEMBL document CHEMBL3588831.

# Tested on: Spleen
# method description: Biodistribution in spleen of C57BL/6J mouse bearing mouse B16F0 cells at 0.37 to 1.85 MBq, iv after 24 hrs by gamma counting method
# Assay type: ADME, organism-based
# settings: in vivo
endpoint label: Drug uptake (% ID/g)

smiles str | target or system | unit symbol | Drug uptake
O=C(CN1Cc2ccccc2C1=O)NC1CCN(Cc2ccc([123I])cc2)CC1 | Spleen | % ID/g | 1.2
O=C(c1ccc2cccnc2n1)N1CCN(Cc2ccc([123I])cc2)CC1 | Spleen | % ID/g | 0.5

I = O=C(c1ccc2c(n1)NCCC2)N1CCN(Cc2ccc([123I])cc2)CC1
II = O=C(CN1Cc2ccccc2C1=O)N1C[C@H]2CN(Cc3ccc([123I])cc3)C[C@H]2C1
# input Which record would sort first by descending Drug uptake, I or II ? State your choice using its label.
# output I
(I: 0.2 % ID/g, II: 0.05 % ID/g)
